In this section, each of the compounds is paired with its reported thermal shift delta Tm.
- System: LOC_OS06G16330-cb003
- Sequence (as listed by the source): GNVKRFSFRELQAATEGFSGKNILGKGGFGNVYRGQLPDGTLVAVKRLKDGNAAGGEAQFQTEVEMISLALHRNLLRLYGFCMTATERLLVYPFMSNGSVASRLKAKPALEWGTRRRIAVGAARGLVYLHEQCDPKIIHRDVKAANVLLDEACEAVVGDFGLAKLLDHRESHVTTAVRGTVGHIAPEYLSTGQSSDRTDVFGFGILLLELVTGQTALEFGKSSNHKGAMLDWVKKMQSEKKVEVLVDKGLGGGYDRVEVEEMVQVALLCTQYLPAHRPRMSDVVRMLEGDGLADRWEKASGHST
- test_summary: thermal shift delta Tm vs DMSO control; higher = stronger stabilization (binding);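 further: purified Escherichia coli-expressed rice kinase domain construct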
- experimental_conditions: 12.5 µM; protein concentration 2 µM
Entry rule: numbers only, all in °C.

Answered cases to consult:
chemical_smiles: Cc1ncc(CCCN(C)C)cc1Nc1ncc2c(n1)-c1ccc(C(F)(F)F)cc1NC(=S)C2
value_measured: 0.15

chemical_smiles: Cc1c[nH]c2nc(Nc3ccc(N4CCN(C)CC4)c(F)c3)nc(-c3cccc(CC#N)c3)c12
value_measured: 17.6

For reference, reported thermal shift delta Tm for `CN1CCN(c2nc(C3=C(c4c[nH]c5ccccc45)C(=O)NC3=O)c3ccccc3n2)CC1` stands at 0.19

###

- System: LOC_OS03G27990-cb004
- test_summary: thermal shift delta Tm vs DMSO control; higher = stronger stabilization (binding)
- experimental_conditions: 12.5 µM; protein concentration 2 µM
Structures can show the parent of a compound that is named as a salt.
Decide using thermal shift delta Tm: a value greater than or equal to 0.6 °C is met, a smaller one is not met.

The following molecules have reported results that may help.
molecule: N#C/C(=C\c1ccc(O)c(O)c1)C(=O)NCc1ccccc1 [AG-490 (Tyrphostin B42)]
answer_label: not met
//
molecule: CNC(=O)c1ccccc1Nc1nc(Nc2ccc(N3CCOCC3)cc2OC)ncc1Cl
answer_label: not met
//
molecule: CC(C)S(=O)(=O)c1ccc2nccc(Nc3ccc4scnc4c3)c2c1
answer_label: not met
//
molecule: Oc1ccc(Nc2nc(-c3ccc(Cl)cc3)cs2)cc1
answer_label: met
//
molecule: CC(C)(C)c1cnc(CSc2cnc(NC(=O)C3CCNCC3)s2)o1
answer_label: not met

Ask | I'd appreciate it if you could say whether `Cc1ccc(CNc2ncnc3ccc(-c4ccc(CO)o4)cc23)o1` has thermal shift delta Tm at least equal to 0.6 °C.
Reply | not met

Ask | I'd appreciate it if you could say whether Nc1nc2cc(-c3ccc4ncc(C(=O)N5CCOCC5)n4c3)ccc2o1 [Serabelisib (INK-1117,MLN-1117,TAK-117)] has thermal shift delta Tm at least equal to 0.6 °C.
Reply | not met

Ask | I'd appreciate it if you could say whether Cc1ccc(NC(=O)c2ccc(CN3CCN(C)CC3)cc2)cc1Nc1nccc(-c2cccnc2)n1 [Imatinib (STI571)] has thermal shift delta Tm at least equal to 0.6 °C.
Reply | not met

Ask | I'd appreciate it if you could say whether C[C@H]1CNCCCN1S(=O)(=O)c1cccc2cncc(F)c12 [Ripasudil (K-115) hydrochloride dihydrate] has thermal shift delta Tm at least equal to 0.6 °C.
Reply | not met

Ask | I'd appreciate it if you could say whether `Cc1c(NC(=O)c2ccc(C(C)(C)C)cc2)cccc1-c1cn(C)c(=O)c(Nc2ccc(C(=O)N3CCOCC3)cc2)n1` has thermal shift delta Tm at least equal to 0.6 °C.
Reply | not met

Ask | I'd appreciate it if you could say whether O=C(/C=C/c1ccc(O)c(O)c1)c1ccc(O)cc1O [Butein] has thermal shift delta Tm at least equal to 0.6 °C.
Reply | met

Ask | I'd appreciate it if you could say whether FC(F)(F)c1ccc(Nc2nc3ccc(Oc4ccnc(-c5ncc(C(F)(F)F)[nH]5)c4)cc3[nH]2)cc1 [Raf265 derivative] has thermal shift delta Tm at least equal to 0.6 °C.
Reply | met

Ask | I'd appreciate it if you could say whether CC1Oc2cc(cnc2N)-c2c(nn(C)c2C#N)CN(C)C(=O)c2ccc(F)cc21 (configuration not stated) has thermal shift delta Tm at least equal to 0.6 °C.
Reply | not met

Ask | I'd appreciate it if you could say whether CC(C)n1nc(-c2cc3cc(O)ccc3[nH]2)c2c(N)ncnc21 [Torkinib (PP242)] has thermal shift delta Tm at least equal to 0.6 °C.
Reply | met

Ask | I'd appreciate it if you could say whether CC(C)c1ccc2oc3nc(N)c(C(=O)O)cc3c(=O)c2c1 [Amlexanox] has thermal shift delta Tm at least equal to 0.6 °C.
Reply | met

Ask | I'd appreciate it if you could say whether `Cc1ncc(CCCN(C)C)cc1Nc1ncc2c(n1)-c1ccc(C(F)(F)F)cc1NC(=S)C2` has thermal shift delta Tm at least equal to 0.6 °C.
Reply | met

Ask | I'd appreciate it if you could say whether CNS(=O)(=O)C[C@H]1CC[C@H](N(C)c2[nH]cnc3nccc2-3)CC1 [Oclacitinib] has thermal shift delta Tm at least equal to 0.6 °C.
Reply | met

Ask | I'd appreciate it if you could say whether `O=C1Nc2ccc(I)cc2/C1=C/c1cc(Br)c(O)c(Br)c1` has thermal shift delta Tm at least equal to 0.6 °C.
Reply | met

Measured values drawn from the supplement of paper PMC9694430 for this set.
